As an illustration, consider measured MIC for compounds on Staphylococcus aureus ATCC 6538.
Measured Quantity: MIC (µg/mL)

In [3]: df
Out[3]:
                               smiles_string  unit_tag  measured_number
 0  COc1ccccc1C(=O)NNC(=O)c1cc(-c2ccc(Br)cc2)n[nH]1     µg/mL             18.7
 1  O=C(NNC(=O)c1cc(-c2ccc(Br)cc2)n[nH]1)c1ccc([N+](=O)[O-])cc1     µg/mL               18
 2  COc1ccc(C(=O)NNC(=O)c2cc(-c3ccc(Br)cc3)n[nH]2)cc1     µg/mL             6.68
 3  O=C(NNC(=O)c1ccccc1F)c1cc(-c2ccc(Br)cc2)n[nH]1     µg/mL             22.1
 4  O=C(NNC(=O)c1cc(-c2ccc(Br)cc2)n[nH]1)c1ccc(Br)cc1     µg/mL             13.8
 5  O=C(NNC(=O)c1cc(-c2ccc(Br)cc2)n[nH]1)c1cccc([N+](=O)[O-])c1     µg/mL             10.8
 6  O=C(NNC(=O)c1cc(-c2cccc(Br)c2)n[nH]1)c1ccc(Br)cc1     µg/mL             12.1
 7  COc1cccc(C(=O)NNC(=O)c2cc(-c3ccc(Br)cc3)n[nH]2)c1     µg/mL             0.78
 8  Cc1ccccc1C(=O)NNC(=O)c1cc(-c2ccc(Br)cc2)n[nH]1     µg/mL             8.08
 9  O=C(NNC(=O)c1cc(-c2ccc(Br)cc2)n[nH]1)c1ccc(Cl)cc1     µg/mL               15
10  O=C(NNC(=O)c1cc(-c2ccc(Br)cc2)n[nH]1)c1cccc(Cl)c1     µg/mL             12.6
11  O=C(NNC(=O)c1cc(-c2ccc(Br)cc2)n[nH]1)c1ccc(F)cc1     µg/mL               15
12  Cc1cccc(C(=O)NNC(=O)c2cc(-c3ccc(Br)cc3)n[nH]2)c1     µg/mL             1.12
13  O=C(NNC(=O)c1cc(-c2ccc(Br)cc2)n[nH]1)c1ccccc1     µg/mL             10.6

----------
Listed molecules paired with reported MIC
System: Staphylococcus aureus ATCC 6538
Measured Quantity: MIC (µg/mL)

>>> df
                                   molecule  unit_tag  measured_number
0  O=C(NNC(=O)c1ccccc1Cl)c1cc(-c2ccc(Br)cc2)n[nH]1 [3n]     µg/mL               17
1  O=C(NNC(=O)c1ccccc1[N+](=O)[O-])c1cc(-c2ccc(Br)cc2)n[nH]1 [3r]     µg/mL               25
2  O=C(NNC(=O)c1cc(-c2ccccc2Br)n[nH]1)c1ccc(Br)cc1 [3o]     µg/mL               21
3  Cc1ccc(C(=O)NNC(=O)c2cc(-c3ccc(Br)cc3)n[nH]2)cc1 [3d]     µg/mL             3.66
4  O=C(NNC(=O)c1cc(-c2ccc(Br)cc2)n[nH]1)c1cccc(F)c1 [3g]     µg/mL               13

// data source = paper PMC3726784
